This collection of values is drawn from patent US20240400689A1.

Target: T1, mouse CD276 protein (mouse, UniProt Q8VE98 29-316)
T1 construct: whole, on cells; also called mCD276; CHO-S-mCD276
T1 sequence (looked up): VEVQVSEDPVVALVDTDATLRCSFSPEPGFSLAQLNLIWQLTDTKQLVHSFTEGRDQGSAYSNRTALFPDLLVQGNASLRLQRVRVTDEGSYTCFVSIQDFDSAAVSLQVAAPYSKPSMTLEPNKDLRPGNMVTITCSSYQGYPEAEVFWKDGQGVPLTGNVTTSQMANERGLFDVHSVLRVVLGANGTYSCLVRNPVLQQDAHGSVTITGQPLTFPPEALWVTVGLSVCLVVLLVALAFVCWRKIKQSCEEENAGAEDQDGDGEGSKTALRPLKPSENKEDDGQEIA
Experiment: FACS on CHO-S-mCD276 cells
The entries below are paired with their reported FACS MFI.
Give your answer as a number; write no unit.

Entry 11-G10-B4-B11 (antibody, V domains shown, mouse monoclonal antibody (hybridoma)) VH: DVQLQESGPGLVKPSQSLSLTCTVTGYSITSDYAWNWIRQFPGNKLEWMGYISYSGSTSYNPSLKSRISITRDTSKNQFFLQLNSVTTEDTATYYCARGGPWFAYWGQGTLVTVSA VL: DVVMTQTPLSLPVSLGDQASISCRSSQSLVHSNGNTYLHWYLQKPGQSPKLLIYKVSNRFSGVPDRFSGSGSGTDFTLKISRVEAEDLGVYFCSQSTHVPFTFGSGTKLEIK , FACS MFI reported as 2800

Lab note: 20-F8-B5-G2 (antibody, V domains shown, mouse monoclonal antibody (hybridoma)) VH: EVQLQESGPSLVKPSQTLSLTCSVTGDSITSAYWNWIRKFPGNKLEYMGYISNSGSTYYNPSLKSRISITRDTSKNQYYLQLNSVTTEDTGTYYCVRGERYYGYGAYWGQGTLVTVSA VL: DIVMTQATPSVPVTPGESISISCRSSKSLLHSNGNTYLYWFLQRPGQSPQLLIYRMSNLASGVPDRFSGSGSGTAFTLRISRVEAEDVGVYYCMQHLEYPFTFGAGTKLELK gave FACS MFI of 67000

Record 20-A2-D10-G8 (antibody, V domains shown, mouse monoclonal antibody (hybridoma)) VH: QVQLQQSGPELVRPGVSVKISCKGSGYTFTDYTMHWVKESHAQSLEWIGVISTYYGNTNYNQNFKGKATLTVDKSSSTAYMELAGLTSEDSAIYYCARASYGSGYGPYYWYFDVWGAGTTVTVSS VL: DIQMTQSPASLFASVGETVTITCRASEKIYSYLAWYFQKQGKSPQFLVYNANALAEGVPSRFSGSGSGTQFSLKIKSLQPEDFGTYYCQHHYGSPVTFGAGSKLELK , field FACS MFI: 1260
